// data source = PubChem BioAssay AID686970

# TEST_DETAILS: qHTS for induction of synthetic lethality in tumor cells producing 2HG: qHTS for the HT-1080-NT fibrosarcoma cell line;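 note: NT is the 2HG producing partner of a matched IDH1 knockdown line; nearly all actives have a fitted effect of over 55% in size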
# EXPERIMENTAL_CONDITIONS: HT-1080-NT fibrosarcoma viability, CellTiter-Glo ATP luminescence, 48 h; series mostly up to 46.1 µM
Screen size: about 360,000 compounds; about 6,000 (1.7%) were called active. Roughly 8% stayed inconclusive and do not appear here. Calls come from the whole dose curve; as a rule, active = well fitted cell-killing curve with a large enough effect; inconclusive = small, poorly fitted or top-dose-only effect, or effect the other way; inactive = flat fitted curve, though single readings scatter. The full list was thinned out, with actives kept by preference.
Outcome codes: YES for active, NO for inactive

Cc1nc(C(F)(F)F)ccc1C(=O)N1CCC1(C)C(=O)NS(=O)(=O)c1ccccc1 (stereo unspecified) :: NO
CC(=O)Nc1ccc(NC(=O)COC(=O)c2ccccc2C(=O)c2ccccc2)cc1 :: NO
COc1ccc(C2NC(=O)c3ccccc3N2)cc1 (stereo unspecified) :: NO
COc1ccc(CN2C[C@H]3CON(C)[C@H]3C[C@H]2c2ccc(-c3cccc(F)c3)cc2)cc1 :: NO
CC(C)C[C@@H]1Cc2[nH][nH]c(=O)c2[C@H](CCc2ccccc2)O1 :: NO
O=C(NC1CCCCC1)C(c1cc2ccccc2o1)n1c(=O)c(-c2ccco2)nc2ccccc21 (stereo unspecified) :: NO
COC(=O)CC1=NN(c2ccccc2)C(=O)C1 :: NO
COc1cccc2sc(N(CCCN(C)C)C(=O)C(c3ccccc3)c3ccccc3)nc12 :: YES
Cc1ccc(C(=O)N/C(=C/c2ccc(-c3cccc([N+](=O)[O-])c3)o2)C(=O)NCCCN(C)C)cc1 :: YES
Cc1ccc(S(=O)(=O)N[C@H](CO)C(C)C)cc1 :: NO
O=C(c1ccc(C(F)(F)F)cc1)N1CCC(=O)N([C@H](COCc2ccccc2)Cc2ccccc2)CC1 :: NO
Cc1ccc(NC(=O)Cn2nnc(C(=O)NCc3ccco3)c2N)c(C)c1 :: YES
COc1ccc(S(=O)(=O)N(C)C[C@H]2OCc3cnnn3CCCC(=O)N([C@H](C)CO)C[C@H]2C)cc1 :: NO
Cc1cc(NC(=O)/C=C/C(=O)N(c2ccccc2C)C(C(=O)NC2CCCC2)c2ccc(F)cc2)no1 (stereo unspecified) :: YES
CCOc1ccc(C2C(C(=O)NC)=C(C)Nc3nc4ccccc4n32)cc1OC (stereo unspecified) :: NO
COC(=O)[C@@]12C[C@@H](CC(=O)N3CCCCC3)C(=O)N(Cc3ccc4c(c3)OCO4)C1=CCC(C)(C)C2 :: NO
C[C@H]1CN([C@@H](C)CO)C(=O)CCCn2cc(nn2)CO[C@@H]1CN(C)S(=O)(=O)c1cccs1 :: NO
Cc1cc(NC(=O)CCC(=O)N(c2ccccc2)C(C(=O)NC2CCCC2)c2ccncc2)no1 (stereo unspecified) :: NO
COC(=O)c1cc(NC(=O)Cc2ccccc2[N+](=O)[O-])ccc1Cl :: NO
CC1(Cc2ccccc2C#N)C(=O)Nc2ccc(-c3ccc4[nH]ccc4c3)cc21 (stereo unspecified) :: YES
COc1ccccc1NC(=O)C1=C(C)NC(=O)NC1c1ccc(C)s1 (stereo unspecified) :: NO
CN(C)CCNC(=O)/C(=C/c1cccc([N+](=O)[O-])c1)NC(=O)c1ccccc1 :: NO
O=C1C(Cl)=C(Oc2ccccc2)C(=O)c2ccccc21 :: YES
CNc1cncc(-c2cccc(C(=O)N3CCOCC3)c2)n1 :: NO
CC(=O)OCC(C)n1c(=O)c2ccccc2n1C(C)=O (stereo unspecified) :: NO
O=C1NC(c2cccc(Cl)c2)Nc2ccccc21 (stereo unspecified) :: YES
CC(Sc1ccc(S(=O)(=O)N2CCN(C)CC2)cn1)C(=O)NC1CCCC(C)C1C (stereo unspecified) :: NO
CC1CCCC(NC(=O)COC(=O)c2ccccc2C(=O)N(C)C2CCCCC2)C1C (stereo unspecified) :: NO
COC(=O)C[C@H]1C[C@@H]2c3cc(N(C)C)ccc3O[C@@H]2[C@H](CO)O1 :: NO
Cn1c(=O)c2cc(NC(=O)NCCc3cccs3)ccc2n1Cc1cccc(C(F)(F)F)c1 :: NO
CC[C@@H]1Cc2cc(O)ccc2C2=C1c1ccc(O)cc1C[C@H]2CC :: YES
Cc1ccc(SCC(=O)NC(=O)NCc2ccco2)c(C)c1 :: NO
CCOc1ccccc1NC(=O)Cn1ncc2ccc([N+](=O)[O-])cc21 :: NO
CCCCNC(=O)c1nc(C2CCN(S(=O)(=O)c3ccc(F)c(F)c3)CC2)oc1-c1cccc(C(F)(F)F)c1 :: NO
C/C(=N/Nc1ccc(Cl)cc1)c1cnnc(-c2ccccc2)n1 :: NO
CCCCCCCCn1c2c(c(=N)c3c1CCC3)CCCC2 :: YES
O=C(NCc1ccccc1)C1c2ccccc2OCC(=O)N1C1CC1 (stereo unspecified) :: NO
Cc1ccccc1S(=O)(=O)NC(=O)C1(C)CCN1C(=O)C1(c2ccccc2)CCCC1 (stereo unspecified) :: NO
O=C1CC(c2ccccc2)=NN1c1ccc([N+](=O)[O-])cc1 :: YES
CC(=O)Nc1ccc(C=CC(=O)c2ccc([N+](=O)[O-])cc2)cc1 :: NO
Cc1cc(C)c2c(=O)n3c(nc2c1)C(CC(C)C)NC(=O)c1cc2ccccc2cc1-3 (stereo unspecified) :: NO
